- System: Yap1 mRNA
- TEST NAME: Dose-dependent inhibition of human Yap1 in A-431 cells (Example 7, 10,000 cells per well, RTS36584)
- Assay type: cell-based
- RUN PARAMETERS: A-431 cells, free uptake, approximately 48 hours, linear regression on log/linear plot
pIC50: −log10 of the molar value. Strand notation (5' to 3'): a small letter for the sugar, then the base; units joined by * are phosphorothioate-linked, units joined directly phosphodiester-linked; [ ] holds rarer units or linkages, { } end groups; capitals alone tell only the bases. k = constrained ethyl (cEt); [5mC] = 5-methylcytosine; d = 2'-deoxy (DNA)
Cut-off 7 on pIC50, inclusive. At or above means criterion met; below means criterion not met.

[ask] For this substance, is measured pIC50 7 or higher? 958505 (kG*kA*kT*dA*dA*dT*d[5mC]*dG*dA*dG*dA*dT*dT*kT*kA*kA; antisense) [compound 958505]
[reply] criterion not met

[ask] For this substance, is measured pIC50 7 or higher? 958805 (k[5mC]*kA*kA*dG*dA*dT*dA*dA*dT*d[5mC]*dA*dT*d[5mC]*k[5mC]*kT*k[5mC]; antisense) [compound 958805]
[reply] criterion not met

[ask] For this substance, is measured pIC50 7 or higher? 958485 (kA*kG*kA*dG*dG*dT*d[5mC]*dA*dG*d[5mC]*dA*dA*dT*kA*k[5mC]*kA; antisense) [compound 958485]
[reply] criterion met

[ask] For this substance, is measured pIC50 7 or higher? 958540 (kA*kT*kT*d[5mC]*dT*dA*dT*d[5mC]*d[5mC]*dA*dG*dG*dG*kT*k[5mC]*kA; antisense) [compound 958540]
[reply] criterion met

[ask] For this substance, is measured pIC50 7 or higher? 958549 (kT*kG*kT*dA*dG*dA*d[5mC]*dA*d[5mC]*dA*dT*dA*d[5mC]*kT*k[5mC]*kT; antisense) [compound 958549]
[reply] criterion not met

[ask] For this substance, is measured pIC50 7 or higher? 958795 (kT*kA*kT*dT*d[5mC]*d[5mC]*dG*d[5mC]*dA*dT*dT*dG*d[5mC]*k[5mC]*kT*kA; antisense) [compound 958795]
[reply] criterion not met

[ask] For this substance, is measured pIC50 7 or higher? 958585 (k[5mC]*kT*k[5mC]*dT*dA*dT*d[5mC]*dA*dA*dG*dG*dT*d[5mC]*k[5mC]*k[5mC]*k[5mC]; antisense) [compound 958585]
[reply] criterion not met

[ask] For this substance, is measured pIC50 7 or higher? 958594 (k[5mC]*kT*k[5mC]*dT*dT*dA*dG*dG*dT*d[5mC]*dT*d[5mC]*d[5mC]*kT*kT*k[5mC]; antisense) [compound 958594]
[reply] criterion not met

[ask] For this substance, is measured pIC50 7 or higher? 958555 (kG*k[5mC]*kT*dT*dA*dT*dA*dT*dT*dG*dA*dA*dG*kA*kG*kT; antisense) [compound 958555]
[reply] criterion not met

[ask] For this substance, is measured pIC50 7 or higher? 958725 (kG*kT*k[5mC]*dA*dG*dT*dT*dA*dT*d[5mC]*d[5mC]*dT*dA*kT*k[5mC]*k[5mC]; antisense) [compound 958725]
[reply] criterion met

[ask] For this substance, is measured pIC50 7 or higher? 958590 (kA*kG*kG*dT*dA*dT*dA*dA*d[5mC]*dT*dG*dG*dG*k[5mC]*kA*kA) [compound 958590]
[reply] criterion met

###

- Test system: Yap1 mRNA
- TEST NAME: Antisense inhibition of human Yap1 in A-431 cells by cEt gapmers, single dose (Example 2, RTS4814)
- Type: cell-based
- RUN PARAMETERS: Table 5; A-431 cells, 5,000 cells per well, free uptake, 2,000 nM modified oligonucleotide, approx. 48 hours; RTS4814; normalized to RIBOGREEN; Yap1 mRNA relative to untreated control cells
- Method: Modified oligonucleotides were designed to target a Yap1 nucleic acid and were tested for their effect on Yap1 mRNA level in vitro. The modified oligonucleotides were tested in a series of experiments that had similar culture conditions. […] After a treatment period of approximately 48 hours, RNA was isolated from the cells and Yap1 mRNA levels were measured by quantitative real-time RTPCR. […] Yap1 mRNA levels were normalized to total RNA content, as measured by RIBOGREEN®. […]
Strand notation (5' to 3'): a small letter for the sugar, then the base; units joined by * are phosphorothioate-linked, units joined directly phosphodiester-linked; [ ] holds rarer units or linkages, { } end groups; capitals alone tell only the bases. k = constrained ethyl (cEt); [5mC] = 5-methylcytosine; d = 2'-deoxy (DNA)
METRIC NAME: YAP1 (% UTC)
# output: bare number, implied unit % UTC

[ask] Give recorded YAP1 (% UTC). 716512 (antisense kA*k[5mC]*kT*d[5mC]*d[5mC]*dT*dT*d[5mC]*d[5mC]*dA*dA*dG*dT*kA*kG*k[5mC]) [Compound 716512]
[reply] 99

[ask] Give recorded YAP1 (% UTC). 716521 (antisense k[5mC]*kA*kG*d[5mC]*dA*d[5mC]*dG*dG*dT*dG*dT*dA*dA*kG*kA*k[5mC]) [Compound 716521]
[reply] 79

[ask] Give recorded YAP1 (% UTC). 716482 (k[5mC]*kT*kA*dT*d[5mC]*d[5mC]*dA*dG*dG*dG*dT*d[5mC]*dA*kA*kT*kT; antisense) [Compound 716482]
[reply] 83

###

Exercise: state measured pIC50 for each of the substances provided.
- Tested on: Yap1 mRNA
- TEST NAME: Dose-dependent inhibition of human Yap1 in SNU-449 cells (Example 9, RTS36584)
- Type: cell-based
- RUN PARAMETERS: free uptake, linear regression on a log/linear plot
Strand notation (5' to 3'): a small letter for the sugar, then the base; units joined by * are phosphorothioate-linked, units joined directly phosphodiester-linked; [ ] holds rarer units or linkages, { } end groups; capitals alone tell only the bases. e = 2'-O-(2-methoxyethyl) (MOE); k = constrained ethyl (cEt); [5mC] = 5-methylcytosine; d = 2'-deoxy (DNA); m = 2'-O-methyl
Scale explanation: pIC50 corresponds to minus log10 of a concentration expressed in moles per litre.

[ask] Give recorded pIC50. 1198297 (kA*kT*kT*dA*dG*dA*dG*dT*dA*dT*dG*dT*kG*eG*k[5mC]*eA) [compound 1198297]
[reply] 7.00

[ask] Give recorded pIC50. 1197216 (kA*kA*kA*dG*dT*dG*dT*dA*dT*dG*dT*d[5mC]*dA*kG*kA*kA; antisense) [compound 1197216]
[reply] 7.00

[ask] Give recorded pIC50. 1198832 (kG*k[5mC]*dA*d[5mC]*dT*dT*dT*dT*dA*d[5mC]*dA*kT*eT*kA*eG*kG; antisense) [compound 1198832]
[reply] 7.00

[ask] Give recorded pIC50. 1197213 (kT*kG*kT*dA*dT*dG*dT*d[5mC]*dA*dG*dA*dA*dG*kA*kG*kT; antisense) [compound 1197213]
[reply] 7.00

[ask] Give recorded pIC50. 1198460 (kG*kA*dA*dA*dT*dT*dG*dT*d[5mC]*dT*d[5mC]*eA*kT*eG*k[5mC]*e[5mC]; antisense) [compound 1198460]
[reply] 7.00

[ask] Give recorded pIC50. 1198596 (k[5mC]*kT*k[5mC]*dT*dT*dA*dT*dA*dT*dG*dG*dT*kT*kT*kT*eG; antisense) [compound 1198596]
[reply] 7.00

[ask] Give recorded pIC50. 1200784 (kT*kG*kT*d[5mC]*dT*mC*dA*dT*dG*d[5mC]*d[5mC]*dT*dT*kA*kT*kA; antisense) [compound 1200784]
[reply] 7.00

[ask] Give recorded pIC50. 1198904 (kT*kA*dT*dT*dA*dG*dA*dG*dT*dA*dT*kG*dT*kG*dG*k[5mC]; antisense) [compound 1198904]
[reply] 7.00

[ask] Give recorded pIC50. 1198642 (kT*kA*dT*dT*dA*dG*dA*dG*dT*dA*dT*dG*kT*eG*kG*e[5mC]; antisense) [compound 1198642]
[reply] 7.00

[ask] Give recorded pIC50. 1198504 (kT*k[5mC]*dA*dG*dA*dT*dT*dT*dA*dG*dG*eA*kT*eG*k[5mC]*eA; antisense) [compound 1198504]
[reply] 7.00

[ask] Give recorded pIC50. 1198875 (kA*kA*dA*dG*dT*dG*dT*dA*dT*dG*dT*k[5mC]*eA*kG*eA*kA; antisense) [compound 1198875]
[reply] 7.40

[ask] Give recorded pIC50. 1200794 (kA*kG*kA*dG*dT*mA*dT*dG*dT*dG*dG*d[5mC]*dA*kA*kT*kA; antisense) [compound 1200794]
[reply] 6.70

[ask] Give recorded pIC50. 1198902 (kT*kT*dA*dG*dA*dG*dT*dA*dT*dG*dT*kG*dG*k[5mC]*dA*kA; antisense) [compound 1198902]
[reply] 7.00

[ask] Give recorded pIC50. 1200820 (kG*kG*kA*dA*dG*mA*dT*d[5mC]*dT*dG*dA*dA*dA*k[5mC]*kT*k[5mC]; antisense) [compound 1200820]
[reply] 6.52

[ask] Give recorded pIC50. 1198500 (kA*kT*dT*dT*dA*dG*dG*dA*dT*dG*d[5mC]*eA*kT*eG*kG*eT; antisense) [compound 1198500]
[reply] 6.70

[ask] Give recorded pIC50. 1198552 (kA*kG*kA*dG*dT*dA*dT*dG*dT*dG*dG*d[5mC]*kA*kA*kT*eA; antisense) [compound 1198552]
[reply] 7.00

[ask] Give recorded pIC50. 1198905 (kA*kT*dA*dT*dT*dA*dG*dA*dG*dT*dA*kT*dG*kT*dG*kG; antisense) [compound 1198905]
[reply] 7.00

[ask] Give recorded pIC50. 1198958 (kT*kG*dT*dA*dT*dG*dT*d[5mC]*dA*dG*dA*kA*dG*kA*dG*kT; antisense) [compound 1198958]
[reply] 7.00

[ask] Give recorded pIC50. 1197312 (kT*kG*kT*dA*mU*dG*dT*d[5mC]*dA*dG*dA*dA*dG*kA*kG*kT; antisense) [compound 1197312]
[reply] 6.52

[ask] Give recorded pIC50. 1095593 (kT*kG*dA*dG*dG*dT*dA*dT*dA*dA*d[5mC]*eT*eG*eG*kG*k[5mC]; antisense) [compound 1095593]
[reply] 7.00

[ask] Give recorded pIC50. 1198543 (kA*kT*kT*dG*dT*d[5mC]*dT*d[5mC]*dA*dT*dG*d[5mC]*k[5mC]*kT*kT*eA; antisense) [compound 1198543]
[reply] 7.00

[ask] Give recorded pIC50. 1198286 (kA*kA*kT*dT*dG*dT*d[5mC]*dT*d[5mC]*dA*dT*dG*k[5mC]*e[5mC]*kT*eT; antisense) [compound 1198286]
[reply] 7.00

[ask] Give recorded pIC50. 1198805 (kA*kT*dT*dG*dT*d[5mC]*dT*d[5mC]*dA*dT*dG*k[5mC]*e[5mC]*kT*eT*kA; antisense) [compound 1198805]
[reply] 7.00

[ask] Give recorded pIC50. 1198409 (kA*dG*dT*dG*d[5mC]*dT*dT*dT*dG*dG*dA*kA*eG*kA*eT*k[5mC]; antisense) [compound 1198409]
[reply] 6.40
